System: 699152-130-R-J1-PDC complex spheroid growth
ASSAY COMMENT: Anticancer human tumor 699152-130-R-J1-PDC patient-derived pancreatic carcinoma cell line growth inhibition [AhR]
DETAILS: second compound 0.316 µM; first compound 0.316 µM; stronger effect = lower value
The molecules listed here are annotated with their viability, T/C.

MOLECULE | viability, T/C (%)
CC1(C)CCC(CN2CCN(c3ccc(C(=O)NS(=O)(=O)c4ccc(NCC5CCOCC5)c([N+](=O)[O-])c4)c(Oc4cnc5[nH]ccc5c4)c3)CC2)=C(c2ccc(Cl)cc2)C1 + Cc1cncc(-c2nc(NCCc3c[nH]c4ccccc34)c3ncn(C(C)C)c3n2)c1 | 105
CC(C)c1c(-c2ccccc2)nc2c(C#N)c[nH]n2c1=O + Cc1ccccc1N=Nc1ccc(NC(=O)c2ccnn2C)c(C)c1 | 82.6
CC1COCCN1c1cc(-c2ccnn2C)c2ccnc(-c3ccn[nH]3)c2n1 (stereo unspecified) + CC(CO)NC(=O)c1cc(-c2ccc(Cl)cc2)nn(-c2cnn(C)c2)c1=O | 77.7
CC(C)c1c(-c2ccccc2)nc2c(C#N)c[nH]n2c1=O + CC(CO)NC(=O)c1cc(-c2ccc(Cl)cc2)nn(-c2cnn(C)c2)c1=O | 86.4
Nc1ccn(C2OC(CO)C(O)C2(F)F)c(=O)n1 (stereo unspecified) + CC(CO)NC(=O)c1cc(-c2ccc(Cl)cc2)nn(-c2cnn(C)c2)c1=O | 50.8
CC1COCCN1c1cc(C2(S(C)(=N)=O)CC2)nc(-c2ccnc3[nH]ccc23)n1 (stereo unspecified) + CC(CO)NC(=O)c1cc(-c2ccc(Cl)cc2)nn(-c2cnn(C)c2)c1=O | 101

---

System: 699152-130-R-J1-PDC complex spheroid growth
ASSAY COMMENT: Anticancer human tumor 699152-130-R-J1-PDC cell line growth inhibition [AhR]; active = viability on the fitted dose curve at most 10% of control; inactive = the rest;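 note: compound exposure lasted 7 days after spheroids had grown for 3 days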
DETAILS: second compound 0.316 µM; first compound 0.0949 µM
Classes used: YES = active, NO = inactive

MOLECULE | CATEGORY LABEL
O=C(C=Cn1cnc(-c2cc(C(F)(F)F)cc(C(F)(F)F)c2)n1)NNc1cnccn1 + Cc1cncc(-c2nc(NCCc3c[nH]c4ccccc34)c3ncn(C(C)C)c3n2)c1 | NO
CC(C)CC(NC(=O)C(Cc1ccccc1)NC(=O)c1cnccn1)B(O)O (configuration not stated) + Cc1ccccc1N=Nc1ccc(NC(=O)c2ccnn2C)c(C)c1 | YES
O=C(C=Cn1cnc(-c2cc(C(F)(F)F)cc(C(F)(F)F)c2)n1)NNc1cnccn1 + Cc1ccccc1N=Nc1ccc(NC(=O)c2ccnn2C)c(C)c1 | NO
CCc1c2c(nc3ccc(O)cc13)-c1cc3c(c(=O)n1C2)COC(=O)[C@]3(O)CC + Cc1cncc(-c2nc(NCCc3c[nH]c4ccccc34)c3ncn(C(C)C)c3n2)c1 | NO
Nc1ncn(C2CC(O)C(CO)S2)c(=O)n1 (configuration not stated) + Cc1ccccc1N=Nc1ccc(NC(=O)c2ccnn2C)c(C)c1 | NO
Nc1ncn(C2CC(O)C(CO)S2)c(=O)n1 (configuration not stated) + Cc1cncc(-c2nc(NCCc3c[nH]c4ccccc34)c3ncn(C(C)C)c3n2)c1 | NO
Nc1ncn(C2CC(O)C(CO)S2)c(=O)n1 (configuration not stated) + CC(CO)NC(=O)c1cc(-c2ccc(Cl)cc2)nn(-c2cnn(C)c2)c1=O | NO
CCN(c1cc(-c2ccc(CN3CCOCC3)cc2)cc(C(=O)NCc2c(C)cc(C)[nH]c2=O)c1C)C1CCOCC1 + Cc1ccccc1N=Nc1ccc(NC(=O)c2ccnn2C)c(C)c1 | NO
CCN(c1cc(-c2ccc(CN3CCOCC3)cc2)cc(C(=O)NCc2c(C)cc(C)[nH]c2=O)c1C)C1CCOCC1 + Cc1cncc(-c2nc(NCCc3c[nH]c4ccccc34)c3ncn(C(C)C)c3n2)c1 | NO
CC(C)CC(NC(=O)C(Cc1ccccc1)NC(=O)c1cnccn1)B(O)O (configuration not stated) + Cc1cncc(-c2nc(NCCc3c[nH]c4ccccc34)c3ncn(C(C)C)c3n2)c1 | YES
CCc1c2c(nc3ccc(O)cc13)-c1cc3c(c(=O)n1C2)COC(=O)[C@]3(O)CC + CC(CO)NC(=O)c1cc(-c2ccc(Cl)cc2)nn(-c2cnn(C)c2)c1=O | NO
CCN(c1cc(-c2ccc(CN3CCOCC3)cc2)cc(C(=O)NCc2c(C)cc(C)[nH]c2=O)c1C)C1CCOCC1 + CC(CO)NC(=O)c1cc(-c2ccc(Cl)cc2)nn(-c2cnn(C)c2)c1=O | NO

---

Quick list: viability, T/C per entry.
System: 699152-130-R-J1-PDC complex spheroid growth
ASSAY COMMENT: Anticancer human tumor 699152-130-R-J1-PDC cell line growth inhibition [AhR];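 note: compound exposure lasted 7 days after spheroids had grown for 3 days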
DETAILS: second compound 10 µM; first compound 0.0316 µM; stronger effect = lower value

COMPOUND | MEASURED TARGET | UNIT STRING | viability, T/C
Cn1ncnc1C1c2n[nH]c(=O)c3cc(F)cc(c23)NC1c1ccc(F)cc1 (stereo not drawn) + Cc1cncc(-c2nc(NCCc3c[nH]c4ccccc34)c3ncn(C(C)C)c3n2)c1 | 699152-130-R-J1-PDC complex spheroid growth | % | 28
O=C(C=Cc1cccc(S(=O)(=O)Nc2ccccc2)c1)NO + CC(CO)NC(=O)c1cc(-c2ccc(Cl)cc2)nn(-c2cnn(C)c2)c1=O | 699152-130-R-J1-PDC complex spheroid growth | % | 85
CC1COCCN1c1cc(-c2ccnn2C)c2ccnc(-c3ccn[nH]3)c2n1 (stereo not drawn) + CC(CO)NC(=O)c1cc(-c2ccc(Cl)cc2)nn(-c2cnn(C)c2)c1=O | 699152-130-R-J1-PDC complex spheroid growth | % | 81.5

---

Tested on: 699152-130-R-J1-PDC complex spheroid growth
ASSAY COMMENT: Anticancer human tumor 699152-130-R-J1-PDC cell line growth inhibition [AhR];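 note: compound exposure lasted 7 days after spheroids had grown for 3 days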
DETAILS: second compound 1 µM; first compound 0.316 µM; stronger effect = lower value
Entries and their viability, T/C values follow.
ENDPOINT: viability, T/C (%)

MOLECULE | ENDPOINT | TEST RESULT
CC1COCCN1c1cc(C2(S(C)(=N)=O)CC2)nc(-c2ccnc3[nH]ccc23)n1 (stereo unspecified) + CC(CO)NC(=O)c1cc(-c2ccc(Cl)cc2)nn(-c2cnn(C)c2)c1=O | viability, T/C | 94.3
CC1COCCN1c1cc(C2(S(C)(=N)=O)CC2)nc(-c2ccnc3[nH]ccc23)n1 (stereo unspecified) + Cc1cncc(-c2nc(NCCc3c[nH]c4ccccc34)c3ncn(C(C)C)c3n2)c1 | viability, T/C | 126
CC1(C)CCC(CN2CCN(c3ccc(C(=O)NS(=O)(=O)c4ccc(NCC5CCOCC5)c([N+](=O)[O-])c4)c(Oc4cnc5[nH]ccc5c4)c3)CC2)=C(c2ccc(Cl)cc2)C1 + Cc1cncc(-c2nc(NCCc3c[nH]c4ccccc34)c3ncn(C(C)C)c3n2)c1 | viability, T/C | 127
Nc1ccccc1NC(=O)c1ccc(CNC(=O)OCc2cccnc2)cc1 + CC(CO)NC(=O)c1cc(-c2ccc(Cl)cc2)nn(-c2cnn(C)c2)c1=O | viability, T/C | 98.4
COc1cc(Nc2ncc3c(n2)-c2ccc(Cl)cc2C(c2c(F)cccc2OC)=NC3)ccc1C(=O)O + Cc1cncc(-c2nc(NCCc3c[nH]c4ccccc34)c3ncn(C(C)C)c3n2)c1 | viability, T/C | 79.5
NS(=O)(=O)OCC1CC(n2ccc3c(NC4CCc5ccccc54)ncnc32)CC1O (stereo unspecified) + CC(CO)NC(=O)c1cc(-c2ccc(Cl)cc2)nn(-c2cnn(C)c2)c1=O | viability, T/C | 91.1
Nc1ccn(C2OC(CO)C(O)C2(F)F)c(=O)n1 (stereo unspecified) + Cc1cncc(-c2nc(NCCc3c[nH]c4ccccc34)c3ncn(C(C)C)c3n2)c1 | viability, T/C | 58.6
CC1(C)CCC(CN2CCN(c3ccc(C(=O)NS(=O)(=O)c4ccc(NCC5CCOCC5)c([N+](=O)[O-])c4)c(Oc4cnc5[nH]ccc5c4)c3)CC2)=C(c2ccc(Cl)cc2)C1 + CC(CO)NC(=O)c1cc(-c2ccc(Cl)cc2)nn(-c2cnn(C)c2)c1=O | viability, T/C | 105
CC1COCCN1c1cc(-c2ccnn2C)c2ccnc(-c3ccn[nH]3)c2n1 (stereo unspecified) + Cc1cncc(-c2nc(NCCc3c[nH]c4ccccc34)c3ncn(C(C)C)c3n2)c1 | viability, T/C | 79.9
COc1cc(Nc2ncc3c(n2)-c2ccc(Cl)cc2C(c2c(F)cccc2OC)=NC3)ccc1C(=O)O + Cc1ccccc1N=Nc1ccc(NC(=O)c2ccnn2C)c(C)c1 | viability, T/C | 74.3
COc1cc(C2c3cc4c(cc3C(OC3OC5COC(C)OC5C(O)C3O)C3COC(=O)C23)OCO4)cc(OC)c1O (stereo unspecified) + Cc1ccccc1N=Nc1ccc(NC(=O)c2ccnn2C)c(C)c1 | viability, T/C | 81
